# testTarget: ACAT (Homo sapiens)
# Construct: Microsomal protein is therefore used as the source of both ACAT and cholesterol; endogenous in cells
# Sequence (P35610 whole entry): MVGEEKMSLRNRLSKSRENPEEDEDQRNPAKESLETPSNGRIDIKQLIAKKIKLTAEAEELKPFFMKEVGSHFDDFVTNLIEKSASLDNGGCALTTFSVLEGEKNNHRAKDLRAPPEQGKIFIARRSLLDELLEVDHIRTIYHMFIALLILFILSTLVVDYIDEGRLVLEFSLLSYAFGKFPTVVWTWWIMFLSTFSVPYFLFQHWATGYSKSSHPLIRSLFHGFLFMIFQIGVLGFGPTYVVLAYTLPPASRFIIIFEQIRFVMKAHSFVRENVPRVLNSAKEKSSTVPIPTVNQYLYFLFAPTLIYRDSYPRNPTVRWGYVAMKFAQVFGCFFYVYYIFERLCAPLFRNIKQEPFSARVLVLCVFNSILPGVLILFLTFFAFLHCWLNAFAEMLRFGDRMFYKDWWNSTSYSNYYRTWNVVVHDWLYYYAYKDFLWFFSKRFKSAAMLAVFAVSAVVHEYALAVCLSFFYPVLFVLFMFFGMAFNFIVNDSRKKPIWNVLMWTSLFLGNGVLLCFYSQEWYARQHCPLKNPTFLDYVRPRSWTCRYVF
# assayOverview: In vitro inhibition of ACAT (radiometric, [14C]oleoyl CoA substrate, microsomal protein)
# conditionLabel: enzyme derived from human embryo 407 intestinal epithelial cell line, 37°C, pH 7.0, 4 minutes, read-out: IC₅₀ for ACAT inhibition
valueKind: IC50 (µM)
Respond numerically; units are µM and should not be typed.

Exercise: Record request: IC50 value, item CCCCCCCNC(=O)Nc1c(F)cc(F)cc1CCc1ccc(CC(C)(C)C)cc1
Solution: 0.022
